test system: rice leafroller (Cnaphalocrocis medinalis); assay: Insecticidal effect on rice leafroller (Test Example 3); type: in vivo; details: 500 ppm, rice lamina dip, third-instar larvae, four days after inoculation, 25° C., humidity 70%
Measure name: Insecticidal effect on rice leafroller (Test Example 3), judged grade

{"Molecule": "Cc1ccccc1NC(=O)c1cccc([N+](=O)[O-])c1C(=O)NC(C)C [compound 599]", "Target or test system": "rice leafroller (Cnaphalocrocis medinalis)", "Readout value": "A (100)"}
{"Molecule": "CCc1ccc(Cl)c(CC)c1NC(=O)c1cccc(I)c1C(=O)NC(C)C [compound 925]", "Target or test system": "rice leafroller (Cnaphalocrocis medinalis)", "Readout value": "A (100)"}
{"Molecule": "Cc1cc(OC(F)F)ccc1NC(=O)c1cccc([N+](=O)[O-])c1C(=O)NC(C)C [compound 696]", "Target or test system": "rice leafroller (Cnaphalocrocis medinalis)", "Readout value": "A (100)"}
{"Molecule": "Cc1ccc(Cl)cc1NC(=O)c1cc2ccccc2cc1C(=O)NC(C)C [compound 822]", "Target or test system": "rice leafroller (Cnaphalocrocis medinalis)", "Readout value": "D (79-50)"}
{"Molecule": "CN(C(=O)c1ccccc1C(=O)NC(C)(C)C)c1ccc(OC(F)(F)F)cc1 [compound 933]", "Target or test system": "rice leafroller (Cnaphalocrocis medinalis)", "Readout value": "A (100)"}
{"Molecule": "Cc1cc(I)ccc1NC(=O)c1cccc(F)c1C(=O)NC(C)C [compound 492]", "Target or test system": "rice leafroller (Cnaphalocrocis medinalis)", "Readout value": "A (100)"}
{"Molecule": "C#Cc1cccc(C(=O)NC(C)C)c1C(=O)Nc1ccc(Cl)cc1C [compound 801]", "Target or test system": "rice leafroller (Cnaphalocrocis medinalis)", "Readout value": "D (79-50)"}
{"Molecule": "CC(C)NC(=O)c1c(C(=O)Nc2cccc(SC(F)(F)F)c2)cccc1[N+](=O)[O-] [compound 623]", "Target or test system": "rice leafroller (Cnaphalocrocis medinalis)", "Readout value": "A (100)"}

----------
tested on: diamondback moth (Plutella xylostella); test: Insecticidal effect on diamondback moth (Test Example 1); format: in vivo; conditions: diamondback moth; mortality judged by criterion of Test Example 1

{"Record smiles": "Cc1cc(C(F)(F)C(F)(F)F)ccc1NC(=O)c1cccc(I)c1C(=O)N(C)C", "Target or test system": "diamondback moth (Plutella xylostella)", "Insecticidal effect, Test Example 1": "A (100)"}
{"Record smiles": "Cc1ccccc1CNC(=O)c1c(I)cccc1C(=O)Nc1ccc(OC(F)F)cc1C", "Target or test system": "diamondback moth (Plutella xylostella)", "Insecticidal effect, Test Example 1": "A (100)"}
{"Record smiles": "CC(C)NC(=O)c1ccccc1C(=O)Nc1ccc(C(O)(C(F)(F)F)C(F)(F)F)cc1", "Target or test system": "diamondback moth (Plutella xylostella)", "Insecticidal effect, Test Example 1": "A (100)"}
{"Record smiles": "COc1ccc(-c2ccccc2)cc1NC(=O)c1cccc(Cl)c1C(=O)NC(C)C", "Target or test system": "diamondback moth (Plutella xylostella)", "Insecticidal effect, Test Example 1": "A (100)"}

----------
test system: rice leafroller (Cnaphalocrocis medinalis); assay: Insecticidal effect on rice leafroller (Test Example 3); type: in vivo; settings: 500 ppm, rice lamina dip, third-instar larvae, four days after inoculation, 25° C., humidity 70%
Measure name: Insecticidal effect on rice leafroller (Test Example 3), judged grade

{"Molecule": "CC(C)NC(=O)c1c(C(=O)Nc2ccccc2Cl)cccc1[N+](=O)[O-] [compound 586]", "Readout value": "D (79-50)"}
{"Molecule": "Cc1cc(OC(F)F)ccc1NC(=O)c1cccc(S(C)(=O)=O)c1C(=O)NC(C)C [compound 795]", "Readout value": "A (100)"}
{"Molecule": "Cc1cc(SC(F)(F)C(F)(F)F)ccc1NC(=O)c1c(Cl)cccc1C(=O)NC(C)C [compound 908]", "Readout value": "A (100)"}
{"Molecule": "Cc1cc(Cl)ccc1NC(=O)c1cccc(SC(C)C)c1C(=O)NC(C)C [compound 788]", "Readout value": "C (89-80)"}
{"Molecule": "CSc1cccc(C(=O)Nc2ccc(OC(F)F)cc2C)c1C(=O)NC(C)C [compound 783]", "Readout value": "A (100)"}
{"Molecule": "Cc1cc(OC(F)F)ccc1NC(=O)c1c(SCC(F)(F)F)cccc1C(=O)NC(C)C [compound 798]", "Readout value": "A (100)"}
{"Molecule": "CCc1cccc(C(=O)NC(C)C)c1C(=O)Nc1ccc(Cl)cc1C [compound 753]", "Readout value": "D (79-50)"}
{"Molecule": "CC(C)NC(=O)c1c(C(=O)Nc2ccc(OC(F)(F)F)cc2Cl)cccc1[N+](=O)[O-] [compound 704]", "Readout value": "A (100)"}
{"Molecule": "CC(C)NC(=O)c1c(C(=O)Nc2cccc3c2CCC3)cccc1[N+](=O)[O-] [compound 735]", "Readout value": "D (79-50)"}
{"Molecule": "CC(C)NC(=O)c1c(C(=O)Nc2ccc(C(F)(F)F)cc2)cccc1[N+](=O)[O-] [compound 606]", "Readout value": "A (100)"}
{"Molecule": "Cc1ccc(Cl)cc1NC(=O)c1cccc(C(F)(F)F)c1C(=O)NC(C)C [compound 755]", "Readout value": "A (100)"}
{"Molecule": "Cc1cc(Oc2ccc(C(F)(F)F)cn2)ccc1NC(=O)c1cccc([N+](=O)[O-])c1C(=O)NC(C)C [compound 728]", "Readout value": "A (100)"}
{"Molecule": "Cc1cc(OC(F)F)ccc1NC(=O)c1cccc([N+](=O)[O-])c1C(=O)NC1CC1 [compound 852]", "Readout value": "D (79-50)"}
{"Molecule": "Cc1cc(OC(F)(F)C(F)(Cl)Cl)ccc1NC(=O)c1c(F)cccc1C(=O)NC(C)C [compound 553]", "Readout value": "A (100)"}
{"Molecule": "COc1cccc(C(=O)NC(C)C)c1C(=O)Nc1ccc(Br)cc1C [compound 771]", "Readout value": "C (89-80)"}
{"Molecule": "Cc1cc(OC(F)(F)C(F)(F)Br)ccc1NC(=O)c1cccc(F)c1C(=O)NC(C)C [compound 503]", "Readout value": "A (100)"}
{"Molecule": "CC(C)NC(=O)c1cccc(F)c1C(=O)Nc1ccc2c(c1)OCO2 [compound 580]", "Readout value": "A (100)"}

----------
test system: diamondback moth (Plutella xylostella); test: Insecticidal effect on diamondback moth (Test Example 1); assay type: in vivo; details: diamondback moth; mortality judged by criterion of Test Example 1

{"Compound": "COCCCNC(=O)c1cccc(I)c1C(=O)Nc1ccc(C(F)(F)C(F)(F)F)cc1C", "Insecticidal effect, Test Example 1": "A (100)"}
{"Compound": "CCN(CC)C(=O)c1c(C(=O)Nc2ccc(OC(F)(F)F)cc2C)ccc(F)c1Cl", "Insecticidal effect, Test Example 1": "A (100)"}
{"Compound": "Cc1cc(C(F)(F)C(F)(F)F)ccc1NC(=O)c1c(I)cccc1C(=O)NCc1ccccc1", "Insecticidal effect, Test Example 1": "A (100)"}
{"Compound": "CCN(CC)C(=O)c1c(I)cccc1C(=O)Nc1ccc(C(O)(C(F)(F)F)C(F)(F)F)cc1", "Insecticidal effect, Test Example 1": "A (100)"}
{"Compound": "CCCC(C)NC(=O)c1c(I)cccc1C(=O)Nc1ccc(C(F)(F)C(F)(F)F)cc1C (stereo not shown)", "Insecticidal effect, Test Example 1": "A (100)"}
{"Compound": "Cc1cc(C(F)(F)C(F)(F)F)ccc1NC(=O)c1c(Cl)cccc1C(=O)N(C)Cc1ccccc1", "Insecticidal effect, Test Example 1": "A (100)"}
{"Compound": "CCC(C)CNC(=O)c1c(I)cccc1C(=O)Nc1ccc(C(F)(F)C(F)(F)F)cc1C (stereo not shown)", "Insecticidal effect, Test Example 1": "A (100)"}
{"Compound": "Cc1cc(C(F)(F)C(F)(F)F)ccc1NC(=O)c1cccc(Cl)c1C(=O)NC1CCCO1 (stereo not shown)", "Insecticidal effect, Test Example 1": "A (100)"}
{"Compound": "CCCNC(=O)c1c(I)cccc1C(=O)Nc1ccc(OC(F)(F)C(F)F)cc1C", "Insecticidal effect, Test Example 1": "A (100)"}
{"Compound": "CCCN(CCC)C(=O)c1c(I)cccc1C(=O)Nc1ccc(OC(F)F)cc1C", "Insecticidal effect, Test Example 1": "A (100)"}
{"Compound": "Cc1cc(OC(F)(F)C(F)(F)c2ccccc2)ccc1NC(=O)c1cccc(Cl)c1C(=O)NC(C)C", "Insecticidal effect, Test Example 1": "A (100)"}
{"Compound": "Cc1cc(C#Cc2ccccc2)ccc1NC(=O)c1cccc(Cl)c1C(=O)NC(C)C", "Insecticidal effect, Test Example 1": "A (100)"}
{"Compound": "CC(C)NC(=O)c1c(Cl)cccc1C(=O)Nc1ccc(C(F)(F)C(F)(F)F)cc1Cl", "Insecticidal effect, Test Example 1": "A (100)"}
{"Compound": "Cc1cc(C(F)(F)C(F)(F)F)ccc1N(C)C(=O)c1cccc(I)c1C(=O)N(C)C(C)C", "Insecticidal effect, Test Example 1": "A (100)"}
{"Compound": "COCC(C)NC(=O)c1cccc(I)c1C(=O)Nc1ccc(C(F)(F)C(F)(F)F)cc1C (stereo not shown)", "Insecticidal effect, Test Example 1": "A (100)"}
{"Compound": "CC(C)NC(=O)c1c(I)cccc1C(=O)Nc1ccc(SC(F)(F)Br)cc1", "Insecticidal effect, Test Example 1": "A (100)"}
{"Compound": "CCc1cc(OC(F)(F)F)ccc1NC(=O)c1ccccc1C(=O)NC(C)C", "Insecticidal effect, Test Example 1": "A (100)"}
{"Compound": "Cc1cc(C(F)(F)C(F)(F)F)ccc1NC(=O)c1cccc(I)c1C(=O)N(C)CC(C)C", "Insecticidal effect, Test Example 1": "A (100)"}
{"Compound": "CC(C)(C)NC(=O)c1c(I)cccc1C(=O)Nc1ccc(C(F)(F)C(F)(F)F)cc1C(F)(F)F", "Insecticidal effect, Test Example 1": "A (100)"}
{"Compound": "CCc1cc(OC(F)(F)F)ccc1NC(=O)c1cccc(I)c1C(=O)NC(C)C", "Insecticidal effect, Test Example 1": "A (100)"}
{"Compound": "CC(C)(C)NC(=O)c1ccccc1C(=O)Nc1ccc2c(c1)OC(F)(F)C(F)(F)O2", "Insecticidal effect, Test Example 1": "A (100)"}
{"Compound": "CC(C)(C)NC(=O)c1c(I)cccc1C(=O)Nc1ccc2nc(C(F)(F)C(F)(F)F)oc2c1", "Insecticidal effect, Test Example 1": "A (100)"}
{"Compound": "CCc1cc(OC(F)(F)F)ccc1NC(=O)c1cccc(I)c1C(=O)N(CC)CC", "Insecticidal effect, Test Example 1": "A (100)"}
{"Compound": "Cc1cc(C(F)(F)C(F)(F)F)ccc1NC(=O)c1cccc(Cl)c1C(=O)NCCOc1cccc(Cl)c1", "Insecticidal effect, Test Example 1": "A (100)"}
{"Compound": "Cc1cc(C(F)(F)C(F)(F)F)ccc1NC(=O)c1ccccc1C(=O)NC(CO)c1ccccc1 (stereo not shown)", "Insecticidal effect, Test Example 1": "A (100)"}
{"Compound": "Cc1cc(C(F)(F)C(F)(F)F)ccc1NC(=O)c1ccc(Cl)cc1C(=O)NC(C)C", "Insecticidal effect, Test Example 1": "A (100)"}
{"Compound": "CC(C)(C)NC(=O)c1ccccc1C(=O)Nc1ccc(C(O)(C(F)(F)F)C(F)(F)F)cc1", "Insecticidal effect, Test Example 1": "A (100)"}
{"Compound": "CCc1cc(C(F)(F)C(F)(F)F)ccc1NC(=O)c1cccc(I)c1C(=O)NC(C)C", "Insecticidal effect, Test Example 1": "A (100)"}
{"Compound": "Cc1cc(C(F)(F)C(F)(F)F)ccc1NC(=O)c1cccc(Cl)c1C(=O)NCc1ccc(Cl)cc1Cl", "Insecticidal effect, Test Example 1": "A (100)"}
{"Compound": "CCCNC(=O)c1cccc(I)c1C(=O)Nc1ccc(C(F)(F)C(F)(F)F)cc1C", "Insecticidal effect, Test Example 1": "A (100)"}
{"Compound": "CCN(CC)C(=O)c1c(C(=O)Nc2ccc(C(F)(F)C(F)(F)F)cc2C)cccc1C(F)(F)F", "Insecticidal effect, Test Example 1": "A (100)"}
